condition_set: in ethanol, 313.15 K
assay_readout: solubility (mole fraction)
Field format: numeric only.

Query: Form field: reported solubility (mole fraction) of COc1ccc2nc(SCc3ncc(C)c(OC)c3C)[nH]c2c1
Response: 0.0155

====

condition_set: in ethyl acetate, 322.15 K
assay_readout: solubility (mole fraction)
// response body must contain only the number

Query: Reported solubility (mole fraction), compound COc1ccc2nc(SCc3ncc(C)c(OC)c3C)[nH]c2c1 : ____
Response: 0.16

====

condition_set: in ethanol, 307.65 K
assay_readout: solubility (mole fraction)
// return a plain number; no unit text

Query: Entry COc1ccc2nc(SCc3ncc(C)c(OC)c3C)[nH]c2c1 : reported solubility (mole fraction) = ?
Response: 0.012
